Conditions: 343.15 K; 100 kPa; Liquid; Concentric cylinders viscometry
parameter: viscosity (mPa·s)
Express your answer in mPa·s, writing the number without its unit.

{"smiles": "CCC1CCCCC1", "unitAnnotation": "mPa·s", "measValue": 0.496}
{"smiles": "CC1CCCCC1", "unitAnnotation": "mPa·s", "measValue": 0.439}
{"smiles": "CCCCC1CCCCC1", "unitAnnotation": "mPa·s", "measValue": 0.671}

Okay, now this compound:
What does the data say about its viscosity? Entry: CC(C)CC(C)(C)C
0.348

---

Settings: 323.15 K; 100 kPa; Liquid; Vibrating tube method
The molecules listed here are annotated with their mass density.
Express your answer in kg/m3, writing the number without its unit.

Reference set, count: 3
{"molecule": "CCC1CCCCC1 [ethylcyclohexane]", "mass density, kg/m3": 763.59}
{"molecule": "CC(C)CC(C)(C)C [2,2,4-trimethylpentane]", "mass density, kg/m3": 666.8}
{"molecule": "CC1CCCCC1 [methylcyclohexane]", "mass density, kg/m3": 743.17}

Okay, now this molecule:
What does the data say about its mass density? Entry: CCCCC1CCCCC1 [butylcyclohexane]
776.7
